Data origin: patent US20230357342A1

EC50, HEK-Blue IL18R reporter (SEAP) values by entry
# TEST TARGET: T1, IL-18 receptor on HEK-Blue IL18R reporter cells (UniProt Q13478 19-541; O95256 20-599, limits assumed)
# T1 sequence (looked up) 1: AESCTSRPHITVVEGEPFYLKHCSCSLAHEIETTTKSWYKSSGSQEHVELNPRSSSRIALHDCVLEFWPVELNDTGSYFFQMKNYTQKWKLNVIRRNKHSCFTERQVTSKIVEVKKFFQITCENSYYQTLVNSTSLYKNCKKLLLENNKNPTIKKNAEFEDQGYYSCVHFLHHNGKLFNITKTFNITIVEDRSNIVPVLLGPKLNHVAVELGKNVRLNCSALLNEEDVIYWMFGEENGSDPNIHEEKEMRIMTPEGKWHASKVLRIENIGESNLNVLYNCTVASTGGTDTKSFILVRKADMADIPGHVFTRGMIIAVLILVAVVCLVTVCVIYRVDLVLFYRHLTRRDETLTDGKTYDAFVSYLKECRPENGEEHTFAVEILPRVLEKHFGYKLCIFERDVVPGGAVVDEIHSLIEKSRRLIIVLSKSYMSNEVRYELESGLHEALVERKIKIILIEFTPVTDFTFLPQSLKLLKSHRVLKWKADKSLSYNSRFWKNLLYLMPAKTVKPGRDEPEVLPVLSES
# T1 sequence (looked up) 2: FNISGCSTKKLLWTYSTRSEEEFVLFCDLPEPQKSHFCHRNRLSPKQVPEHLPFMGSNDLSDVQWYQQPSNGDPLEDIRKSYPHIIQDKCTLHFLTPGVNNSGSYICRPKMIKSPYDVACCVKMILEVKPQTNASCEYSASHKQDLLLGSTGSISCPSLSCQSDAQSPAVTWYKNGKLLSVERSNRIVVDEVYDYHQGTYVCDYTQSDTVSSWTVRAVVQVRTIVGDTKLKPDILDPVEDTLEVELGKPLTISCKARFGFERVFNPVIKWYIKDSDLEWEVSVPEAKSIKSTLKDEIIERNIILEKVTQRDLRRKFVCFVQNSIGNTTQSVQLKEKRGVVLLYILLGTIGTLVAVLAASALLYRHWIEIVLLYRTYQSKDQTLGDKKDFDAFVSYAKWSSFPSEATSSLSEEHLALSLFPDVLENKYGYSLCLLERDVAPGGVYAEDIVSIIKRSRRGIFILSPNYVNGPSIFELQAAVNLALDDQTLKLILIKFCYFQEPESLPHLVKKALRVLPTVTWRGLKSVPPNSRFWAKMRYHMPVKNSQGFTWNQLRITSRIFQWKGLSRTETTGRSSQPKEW
# TEST DESCRIPTION: cell-based or functional assay
# output: bare number, implied unit nM

Here's what some known entries look like.
INSERT INTO measurements (binder, units_text, endpoint_result) VALUES
  ('modified IL-18 polypeptide SEQ ID NO: 230 (K8L, E6K, V11I, C38A, K53A, T63A, C76A, C127A) (ligand) YFGKLKSLLSIIRNLNDQVLFIDQGNRPLFEDMTDSDARDNAPRTIFIISMYADSQPRGMAVAISVKCEKISTLSAENKIISFKEMNPPDNIKDTKSDIIFFQRSVPGHDNKMQFESSSYEGYFLAAEKERDLFKLILKKEDELGDRSIMFTVQNED', 'nM', 0.29),
  ('modified IL-18 polypeptide SEQ ID NO: 222 (K8R, V11I, C38A, C76A, Q103E, C127A) (ligand) YFGKLESRLSIIRNLNDQVLFIDQGNRPLFEDMTDSDARDNAPRTIFIISMYKDSQPRGMAVTISVKCEKISTLSAENKIISFKEMNPPDNIKDTKSDIIFFERSVPGHDNKMQFESSSYEGYFLAAEKERDLFKLILKKEDELGDRSIMFTVQNED', 'nM', 2.01);

Next binder, please.
Prompt line: Quick one: give measured EC50, HEK-Blue IL18R reporter (SEAP) for modified IL-18 polypeptide SEQ ID NO: 226 (V11I, C38A, S55R, C76A, C127A) (ligand) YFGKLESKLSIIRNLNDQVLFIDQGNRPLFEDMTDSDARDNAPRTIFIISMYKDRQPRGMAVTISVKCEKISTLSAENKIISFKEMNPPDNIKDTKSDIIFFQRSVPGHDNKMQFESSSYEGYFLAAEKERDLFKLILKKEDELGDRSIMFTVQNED
Response line: 1.91
